Assay: Toxicity liver stage against HepG2, at 10uM
Format: cell-based
Design: test concentration 10 uM, cell line HepG2-A16-CD81EGFP
Conditions: human, HepG2-A16-CD81EGFP cells; read-out: INHIBITION
OBSERVATION TYPE: cytotoxicity at 10 µM (%)

molecule="CC(c1ccncc1)n1cc2nc(N(C)C)[nH]cc-2c1=O (configuration not stated)" quantitative_result=-3.64
molecule=CNC(=O)CS(=O)(=O)Cc1coc(-c2ccc(OC)cc2)n1 quantitative_result=-2.95
molecule="CCc1nc(CN2CCCC(NCc3cc(C)no3)C2)no1 (configuration not stated)" quantitative_result=1.59
molecule=O=C(c1ccc(-c2cn[nH]c2)nc1)N1CCC(N2CCOCC2)CC1 quantitative_result=1.38
molecule="Cc1cnn(CC2CCCN2C(=O)c2ccccc2-n2cccn2)c1 (configuration not stated)" quantitative_result=-4.16
molecule=CN(CCO)C[C@@H]1CN(Cc2ccccc2C#N)C[C@@H]1CO quantitative_result=-0.951
molecule=COc1ncc(C(=O)NCc2ccc(Br)cc2)cn1 quantitative_result=48.6
molecule=O=C(CCc1nc2cccnc2[nH]1)Nc1ccc2c(c1)NC(=O)CO2 quantitative_result=-1.94
molecule="Cn1c(SCc2noc(C(C)(C)C)n2)nnc1C1CCS(=O)(=O)C1 (configuration not stated)" quantitative_result=8.32
molecule=CN(C)C(=O)[C@H]1C[C@@H]2CCN(Cc3ccoc3)C[C@@H]2O1 quantitative_result=-99.7
molecule=O=C(c1ccccn1)N1CCc2c(nc(-c3ccncc3)[nH]c2=O)C1 quantitative_result=2.99
molecule=CC(C)[C@H]1CN(C2Cc3ccccc3C2)C[C@@H]1NS(C)(=O)=O quantitative_result=-16
molecule="CCn1cc(CNC2CC(=O)N(CCc3cccc(Cl)c3)C2)cn1 (configuration not stated)" quantitative_result=-8.54
molecule="CC(C)c1nccn1-c1cccc(C2CCCN2S(=O)(=O)N(C)C)n1 (configuration not stated)" quantitative_result=4.26
molecule=Cc1nccn1-c1ccc(NS(=O)(=O)c2cccnc2)cn1 quantitative_result=-4.73
molecule=COc1ccnc(N2C[C@H]3CC[C@@H](C2)N(CC2CC2)C3)n1 quantitative_result=-0.65
molecule=CCc1ccccc1CN1CCN(Cc2ncc[nH]2)[C@H]2CS(=O)(=O)C[C@H]21 quantitative_result=2.03
molecule=COCCC(=O)N1CCn2cc(CN3CCN(C)CC3)nc2C1 quantitative_result=-3.13
molecule="CC(C(=O)NCc1cccc(N2CC=CC2)c1)n1cccn1 (configuration not stated)" quantitative_result=-5.07
molecule=Clc1cnccc1NCc1cccc(COC2CCOCC2)c1 quantitative_result=53.9
molecule="O=C(O)C(c1ccc2c(c1)OCO2)N1CCC(O)(c2cccnc2)CC1 (configuration not stated)" quantitative_result=19.7
molecule=Cc1ncsc1CN1C[C@@H]2COC[C@]2(C(=O)NC2CC(F)(F)C2)C1 quantitative_result=-103
molecule=NC(=O)[C@H]1CCCN(c2nccc(-c3ccncc3)n2)C1 quantitative_result=-5.03
molecule=CC(C)CN1CCCn2nc(CNC(=O)CN3CCOC3=O)cc2C1 quantitative_result=0.541
molecule="Cc1cc2n(n1)CC(CNCc1cc(C)on1)CN2 (configuration not stated)" quantitative_result=-7.93
molecule="CN(C)C(C(=O)Nc1nccs1)c1c(F)cccc1Cl (configuration not stated)" quantitative_result=-44.4
molecule=Cc1c[nH]nc1C1CCN(S(=O)(=O)N(C)C)CC1 quantitative_result=0.462
molecule=COc1cccc(S(=O)(=O)NC(=O)CC2CCCC2)c1 quantitative_result=3.13
molecule=CCc1ccc2c(C3CN(C(C)=O)C3)ncn2c1 quantitative_result=2.16
molecule="Nc1ncc(C(=O)N2CCCC(N)CC2)c(-c2ccccc2)n1 (configuration not stated)" quantitative_result=-132
molecule="CC(C)c1ncc2c(n1)CN(CC1CCCCO1)CC2 (configuration not stated)" quantitative_result=8.86
molecule="Cc1cnc(N2CCC3(CC2)CC3C(=O)NCC2CC2)nc1 (configuration not stated)" quantitative_result=6.34
molecule=Cn1ccc2c(-c3ccc(NC4CC4)nn3)ccnc21 quantitative_result=10.4
molecule="Cc1nc(C)n(C2CCCN(C(=O)c3cc(C4CC4)on3)C2)n1 (configuration not stated)" quantitative_result=-3.87
molecule=O=C(CN1CCc2sccc2C1)Nc1nccs1 quantitative_result=5.31
molecule=O=C(Cc1ccccc1)N1CC[C@H]2[C@@H]1CCC(=O)N2Cc1ccncc1 quantitative_result=3.07
molecule="CN(C)c1ncc2c(n1)C1(CCN(Cc3ccccc3)C1)COC2 (configuration not stated)" quantitative_result=-5.07
molecule="CN(C)c1ccc2c(c1)CN(C(=O)c1ccnnc1)C2c1cnco1 (configuration not stated)" quantitative_result=0.841
molecule=CN(C)Cc1cccc(-c2cccnc2C(=O)NCc2ccco2)c1 quantitative_result=4.16
molecule=CC(=O)N1CCN(Cc2coc(-c3cccc(F)c3)n2)CC1 quantitative_result=-3.78
molecule=O=C(CCc1cccs1)N1CCc2[nH]nc(COc3ccccc3)c2C1 quantitative_result=0.621
molecule=O=C(CNCc1ccccc1Cn1cccn1)Nc1cnccn1 quantitative_result=8.11
molecule=COc1cc(CN(Cc2ccccn2)CC(C)C)cc2c1OCO2 quantitative_result=-16
molecule=Cc1ccn2c(F)c(C(=O)N3CCC4(CCC(=O)N(C)C4)CC3)nc2c1 quantitative_result=5.96
molecule=O=C(NCC1CC1)[C@@H]1CCO[C@@H]2CCN(Cc3ccsc3)C[C@H]21 quantitative_result=-76.5
molecule=Cn1nc(C(=O)NC2CC2)cc1NC(=O)C1CC1 quantitative_result=-4.02
molecule=CNC(=O)CN(C(=O)c1cc(C(C)C)no1)c1cccc(F)c1 quantitative_result=9.77
